assay: Plasma pharmacokinetics after single and repeated oral doses; type: in vivo, healthy adult participants (human); conditions: human, plasma, oral; Part 1b single 10 mg fed; read-out: Vz/F, mean
metric: Vd/F
Output should be the measured figure followed by the unit it is expressed in.

Enquiry: Output Vd/F of CC(C)(C(=O)N1CCOc2c(C#N)cncc2C1)C(F)F
Return: 86 L

* * *

Assay: CSF concentration, CSF-to-unbound plasma concentration ratio (Part 1b)
Format: in vivo, healthy adult participants (human)
Details: human, CSF / unbound plasma, oral, Part 1b single dose fed, [T5H-T16H]; read-out: CSF-to-unbound Plasma concentration ratio, geometric mean
Method: Compound 1 concentrations in CSF were measured after single oral dosing in two dedicated cohorts in Part 1b. Lumbar puncture was performed for CSF collection and only one CSF sample per participant was collected on Day 1. Given the limited number of CSF PK samples that were collected in this study, CSF PK parameters were not determined; instead, Compound 1 concentrations in CSF were reported and concentration ratio between CSF and unbound plasma was calculated. […]
metric: Kp
Lab note: write the figure by itself, no unit.

Enquiry: Output Kp of CC(C)(C(=O)N1CCOc2c(C#N)cncc2C1)C(F)F
Return: 1.27
